Cited source for all entries: the nanobody polyreactivity screen of Harvey et al. (2022)

procedure_summary: yeast display, Sf9 membrane polyspecificity reagent, FACS + sequencing; frameworks hold sequencing errors

ordered_residues: QVEHVESGGALGQAGGSLRLSCAASGITFAPYAMGWYREAPGKETEFDAGINTGGSKYYADSVKGRFTISRDNAKNTFYVQMNSLKPEDTAVYFCATESYPADQDIPGSDYWGQGTQVTVSS
polyreactivity (PSR sort gate): low polyreactivity

ordered_residues: HDQRVESGGGLVQAGGSLRLSCAASGITFASYAMGWYRQAPGKDRELVAAISWGGSRTYYADSVKGRFTISRDTAKISVYLQMNSLKPEDTAVYYCNAHTRYGPDYSYYYWGQGTQVTVSS
polyreactivity (PSR sort gate): high polyreactivity

ordered_residues: QVQLVESGGGLVQAGGSLRLSCAASGGTFWYYDMGWYRQAPGKERELVAAISSGGNTYYADSVKGRFTISRDNAKNTVYLQMNSLKREDNAVYYWAALPKYGSYYYYPPFDYDYWGHGTQVTVSS
polyreactivity (PSR sort gate): low polyreactivity

ordered_residues: QVQLVESWGGLVQAGGSLRISCAASGRTFVRNALGWYRHAPGKEREMVAGITRSGGSTYYADSVKGRFTISRDNAKNTVYLQMNSLKPEDTAVYYCATQYRYYNHFVTPFTRYGYWGQGTQLTVSS
polyreactivity (PSR sort gate): high polyreactivity

ordered_residues: QVQLVESGGGLVQAGGSLRLSCAASGFIFTIYAMGWYRQAPGKERELVAAITWNGGRTYYADSVKGRFTISRDNAKNTVDLQMNSLKPEDTAVYYCAARYGRAYDYWGQGSQVTVSS
polyreactivity (PSR sort gate): high polyreactivity

ordered_residues: QVQLVESGGGLLQAGGSLRLSSAASGRIFYGNTMGWYRQAPGKERELVAAITWRGGSTYYADSVKGRFTISRDNAKNTVYLQMNSLKPEDTAVYYCAAVSYRGRGYWGQGTQVTVSS
polyreactivity (PSR sort gate): high polyreactivity

ordered_residues: QVQLVESGGGLVQAGGSLRLSGDASGYIFVRYAMGWYRQAPGQARELVAAINSSGGRTYYADSVKGRFTISRDNAKNTVYLQMNSLKPEDTAVYYCAAYAYYRSGYRALEGYWGQGTQVTVSS
polyreactivity (PSR sort gate): high polyreactivity

ordered_residues: QVQLVESGGGLVQAGGSLRLSCAASGFIFRYYAMGWYRQAPGKERELVAAISWSGGSTYYADSVKGRFTISRDNAKNTVYLQMNSLKPEDTAVYYCNAVTTYGEYDYWGQGTQVTVSS
polyreactivity (PSR sort gate): high polyreactivity

ordered_residues: QVQLVESGGGLVQAGGSLRLSCAASGITFGYYAMGWYRQAPGKEREMVAAISFTGASTYYADSVKGRFTISRDNAKNTVYLQMNSLKPEDTAVYYCAADPYVPYQDFLSGFDYWGQGTQVTVSS
polyreactivity (PSR sort gate): low polyreactivity

ordered_residues: QVQLVESGGGLLQAGCSLRISCAASGFIFYKYVMGWYRPAPGKERELVAAINWSGGSTYYADSVKGRFTISRDNAKNTVYLQMNSLKQEDTAVYYCNAARRSKGGLNDYYWGQGTQVTVSS
polyreactivity (PSR sort gate): high polyreactivity

ordered_residues: QVQLVESGGGLVQAGGSLRLSCAASGFTLDPYALGWYRQAPGKERELVAAIRLSGCSTYYADSVKGRFTISRDNAKNTVYLQMNSLKPEDTAVYYCAADGISHWLYRYDYWGQGTQVTVSS
polyreactivity (PSR sort gate): low polyreactivity
